Cited source for all entries: patent US11091479B2

# tested_system: recombinant human MAO-B (monoamine oxidase-B) (Homo sapiens)
# Construct: purchased Sigma-Aldrich
# Sequence (P27338 whole entry): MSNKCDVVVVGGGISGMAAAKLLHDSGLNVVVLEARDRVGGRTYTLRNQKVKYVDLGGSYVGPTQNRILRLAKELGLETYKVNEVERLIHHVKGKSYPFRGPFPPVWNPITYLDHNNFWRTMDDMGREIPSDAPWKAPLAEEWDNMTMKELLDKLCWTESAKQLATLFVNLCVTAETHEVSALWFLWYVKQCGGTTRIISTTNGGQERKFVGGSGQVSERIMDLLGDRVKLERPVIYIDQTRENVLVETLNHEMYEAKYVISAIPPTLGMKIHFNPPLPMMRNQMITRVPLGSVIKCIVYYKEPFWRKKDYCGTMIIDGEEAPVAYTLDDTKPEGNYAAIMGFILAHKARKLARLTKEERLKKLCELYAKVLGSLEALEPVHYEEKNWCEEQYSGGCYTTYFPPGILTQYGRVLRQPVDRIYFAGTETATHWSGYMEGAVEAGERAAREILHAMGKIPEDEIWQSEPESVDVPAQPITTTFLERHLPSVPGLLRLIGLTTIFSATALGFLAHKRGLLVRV
# experiment_summary: Activity on recombinant human MAO-B, method similar to VAP-1 assay, 1 mM benzylamine substrate
# Assay type: biochemical
# condition_set: read-out: Inhibitory Activity (IC50, nM) MAO-B
Where a name gives a salt, the structure may show the parent alone.
The threshold is 200 nM. Values of IC50 beneath it are tagged true (1); values meeting or exceeding it are tagged false (0).

compound: NC/C(=C\F)Cn1nc2ccc(-c3ccc(-c4nc[nH]n4)cc3)cn2c1=O [Example 5, trifluoroacetate]
tested_system: recombinant human MAO-B (monoamine oxidase-B) (Homo sapiens)
label_value: false (0)

compound: NC/C(=C\F)Cn1nc2cc(-c3cccc(-c4cc[nH]n4)c3)ccn2c1=O [Example 26, hydrochloride]
tested_system: recombinant human MAO-B (monoamine oxidase-B) (Homo sapiens)
label_value: true (1)

compound: NC/C(=C\F)Cn1nc2ccc(-c3cccc(-c4nc[nH]n4)c3)cn2c1=O [Example 6]
tested_system: recombinant human MAO-B (monoamine oxidase-B) (Homo sapiens)
label_value: true (1)

compound: NCC(Cn1nc2ccc(Br)cn2c1=O)=C(F)F [Example 46, trifluoroacetate]
tested_system: recombinant human MAO-B (monoamine oxidase-B) (Homo sapiens)
label_value: false (0)

compound: CN1CCOc2cc(-c3ccn4c(=O)n(C/C(=C/F)CN)nc4c3)ccc21 [Example 44, hydrochloride]
tested_system: recombinant human MAO-B (monoamine oxidase-B) (Homo sapiens)
label_value: true (1)

compound: CN1C(=O)CCc2cc(-c3ccn4c(=O)n(CC(CN)=C(F)F)nc4c3)ccc21 [Example 54, trifluoroacetate]
tested_system: recombinant human MAO-B (monoamine oxidase-B) (Homo sapiens)
label_value: true (1)

compound: NC/C(=C\F)Cn1nc2cc(-c3ccc4c(c3)OCO4)ccn2c1=O [Example 36, hydrochloride]
tested_system: recombinant human MAO-B (monoamine oxidase-B) (Homo sapiens)
label_value: true (1)

compound: Cc1cc(-c2ccn3c(=O)n(C/C(=C/F)CN)nc3c2)cc2c1NC(=O)CC2 [Example 43, hydrochloride]
tested_system: recombinant human MAO-B (monoamine oxidase-B) (Homo sapiens)
label_value: true (1)

compound: CN(C)c1ccc(C#Cc2ccn3c(=O)n(CC(CN)=C(F)F)nc3c2)cn1 [Example 57, trifluoroacetate]
tested_system: recombinant human MAO-B (monoamine oxidase-B) (Homo sapiens)
label_value: false (0)

compound: NC/C(=C\F)Cn1nc2cc(-c3ccc(-c4noc(C5CC5)n4)cc3)ccn2c1=O [Example 29, hydrochloride]
tested_system: recombinant human MAO-B (monoamine oxidase-B) (Homo sapiens)
label_value: false (0)

compound: NC/C(=C\F)Cn1nc2ccc(-c3ccc(N4CCOCC4)nc3)cn2c1=O [Example 11, hydrochloride]
tested_system: recombinant human MAO-B (monoamine oxidase-B) (Homo sapiens)
label_value: true (1)

compound: NC/C(=C\F)Cn1nc2ccc(-c3ccc(-c4ccon4)cc3)cn2c1=O [Example 7, hydrochloride]
tested_system: recombinant human MAO-B (monoamine oxidase-B) (Homo sapiens)
label_value: true (1)

compound: NC/C(=C\F)Cn1nc2cc(-c3ccc4cn[nH]c4c3)ccn2c1=O [Example 37, hydrochloride]
tested_system: recombinant human MAO-B (monoamine oxidase-B) (Homo sapiens)
label_value: true (1)

compound: NC/C(=C\F)Cn1nc2cc(C3=CCNCC3)ccn2c1=O [Example 34, dihydrochloride]
tested_system: recombinant human MAO-B (monoamine oxidase-B) (Homo sapiens)
label_value: false (0)

compound: NC/C(=C\F)Cn1nc2ccc(-c3ccc(S(=O)(=O)N4CCOCC4)cc3)cn2c1=O [Example 4, trifluoroacetate]
tested_system: recombinant human MAO-B (monoamine oxidase-B) (Homo sapiens)
label_value: false (0)
